# assay-method-text: HDN33 neuroblastoma growth inhibition, cell-based, chromothripsis tumors, cisplatin or BGB combos (AID 1671450);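 also: cells exposed to compound for four days; 0% = vehicle DMSO and 100% = cell killing by high DMSO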
# condition-info: HDN33 neuroblastoma cells, measured here: with BGB IC20 combination, at 0.5 µM, stronger effect = higher value

| compound | inhibition / % |
| --- | --- |
| COc1cc(C2c3cc4c(cc3C(O)C3COC(=O)C23)OCO4)cc(OC)c1OC (configuration not stated) | 69.9 |
| CCC1(c2ccccc2)C(=O)NC(=O)NC1=O | -25.3 |
| Cn1c(COP(=O)(NCCBr)NCCBr)cnc1[N+](=O)[O-] | -21.2 |
| Cn1c(CCCC(=O)O)nc2cc(N(CCCl)CCCl)ccc21 | -46.1 |
| Cc1c2ccncc2c(C)c2c1[nH]c1ccccc12 | 6.43 |
| O=C1CCC[C@@H]2[C@H]3CCCN4CCC[C@@H](CN12)[C@@H]34 | -9.69 |
| CC1(C)C(C(=O)Nc2ccc(S(=O)(=O)c3ccc(NC(=O)C4C(C)(C)C4(C)C)cc3)cc2)C1(C)C | -56.4 |
